B1: DVL3 (parent)
chain: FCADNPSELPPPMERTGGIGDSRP

Variants of: B1
testProtocol: protein stability index of a GFP-peptide fusion (GPS, HEK-293T) (PSI 1-6); higher = more stable;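 also: lentivirally expressed fusions sorted by FACS into six bins by GFP to DsRed ratio, PSI derived from sequencing read proportions per bin multiplied by bin number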
experimentalConditions: c terminus: a fixed tail appended
Listing of recorded protein stability index by entry.
assayEndpoint: protein stability index

[
  {
    "mutation": "E8M",
    "assayEndpoint": "protein stability index",
    "resultValue": 3.49
  },
  {
    "mutation": "P12S",
    "assayEndpoint": "protein stability index",
    "resultValue": 4.07
  },
  {
    "mutation": "I19H",
    "assayEndpoint": "protein stability index",
    "resultValue": 5.16
  },
  {
    "mutation": "S22V",
    "assayEndpoint": "protein stability index",
    "resultValue": 4.15
  },
  {
    "mutation": "L9K",
    "assayEndpoint": "protein stability index",
    "resultValue": 4.66
  },
  {
    "mutation": "A3F",
    "assayEndpoint": "protein stability index",
    "resultValue": 3.56
  },
  {
    "mutation": "F1H",
    "assayEndpoint": "protein stability index",
    "resultValue": 5.25
  },
  {
    "mutation": "R15M",
    "assayEndpoint": "protein stability index",
    "resultValue": 4.25
  },
  {
    "mutation": "I19Y",
    "assayEndpoint": "protein stability index",
    "resultValue": 4.35
  },
  {
    "mutation": "P11I",
    "assayEndpoint": "protein stability index",
    "resultValue": 4.54
  },
  {
    "mutation": "E14R",
    "assayEndpoint": "protein stability index",
    "resultValue": 3.78
  },
  {
    "mutation": "P11A",
    "assayEndpoint": "protein stability index",
    "resultValue": 5.1
  },
  {
    "mutation": "A3I",
    "assayEndpoint": "protein stability index",
    "resultValue": 4.25
  },
  {
    "mutation": "D4N",
    "assayEndpoint": "protein stability index",
    "resultValue": 3.96
  },
  {
    "mutation": "P6L",
    "assayEndpoint": "protein stability index",
    "resultValue": 3.88
  },
  {
    "mutation": "G17V",
    "assayEndpoint": "protein stability index",
    "resultValue": 4.12
  },
  {
    "mutation": "G20A",
    "assayEndpoint": "protein stability index",
    "resultValue": 4.68
  },
  {
    "mutation": "F1V",
    "assayEndpoint": "protein stability index",
    "resultValue": 5.18
  },
  {
    "mutation": "M13V",
    "assayEndpoint": "protein stability index",
    "resultValue": 4.89
  },
  {
    "mutation": "P24M",
    "assayEndpoint": "protein stability index",
    "resultValue": 3.65
  },
  {
    "mutation": "C2I",
    "assayEndpoint": "protein stability index",
    "resultValue": 4.71
  },
  {
    "mutation": "D4S",
    "assayEndpoint": "protein stability index",
    "resultValue": 4.25
  },
  {
    "mutation": "S22F",
    "assayEndpoint": "protein stability index",
    "resultValue": 3.28
  },
  {
    "mutation": "T16A",
    "assayEndpoint": "protein stability index",
    "resultValue": 4.6
  },
  {
    "mutation": "R23W",
    "assayEndpoint": "protein stability index",
    "resultValue": 2.21
  },
  {
    "mutation": "E8T",
    "assayEndpoint": "protein stability index",
    "resultValue": 4.02
  },
  {
    "mutation": "P10E",
    "assayEndpoint": "protein stability index",
    "resultValue": 2.94
  },
  {
    "mutation": "S7D",
    "assayEndpoint": "protein stability index",
    "resultValue": 5.04
  },
  {
    "mutation": "S22A",
    "assayEndpoint": "protein stability index",
    "resultValue": 4.61
  },
  {
    "mutation": "R15V",
    "assayEndpoint": "protein stability index",
    "resultValue": 4.5
  },
  {
    "mutation": "R15L",
    "assayEndpoint": "protein stability index",
    "resultValue": 4.51
  },
  {
    "mutation": "A3N",
    "assayEndpoint": "protein stability index",
    "resultValue": 4.79
  },
  {
    "mutation": "G18P",
    "assayEndpoint": "protein stability index",
    "resultValue": 4.04
  },
  {
    "mutation": "S7G",
    "assayEndpoint": "protein stability index",
    "resultValue": 4.01
  },
  {
    "mutation": "D21I",
    "assayEndpoint": "protein stability index",
    "resultValue": 3.77
  },
  {
    "mutation": "T16E",
    "assayEndpoint": "protein stability index",
    "resultValue": 4.45
  },
  {
    "mutation": "I19Q",
    "assayEndpoint": "protein stability index",
    "resultValue": 4.65
  },
  {
    "mutation": "R15W",
    "assayEndpoint": "protein stability index",
    "resultValue": 3.77
  },
  {
    "mutation": "D21S",
    "assayEndpoint": "protein stability index",
    "resultValue": 4.35
  },
  {
    "mutation": "F1N",
    "assayEndpoint": "protein stability index",
    "resultValue": 5.58
  },
  {
    "mutation": "D4G",
    "assayEndpoint": "protein stability index",
    "resultValue": 4.37
  },
  {
    "mutation": "P11L",
    "assayEndpoint": "protein stability index",
    "resultValue": 4.64
  },
  {
    "mutation": "S7E",
    "assayEndpoint": "protein stability index",
    "resultValue": 5.11
  },
  {
    "mutation": "E8L",
    "assayEndpoint": "protein stability index",
    "resultValue": 3.67
  },
  {
    "mutation": "R15T",
    "assayEndpoint": "protein stability index",
    "resultValue": 4.55
  },
  {
    "mutation": "E14S",
    "assayEndpoint": "protein stability index",
    "resultValue": 4.31
  }
]
